pEC50 values, listed per item
Biological target: T1, recombinant human CD3ε-ECD His protein (human, UniProt P07766 23-126)
T1 construct: extracellular domain; also called human CD3ε-His; CD3ε antigen protein; not shown: His tag
T1 sequence (P07766 23-126): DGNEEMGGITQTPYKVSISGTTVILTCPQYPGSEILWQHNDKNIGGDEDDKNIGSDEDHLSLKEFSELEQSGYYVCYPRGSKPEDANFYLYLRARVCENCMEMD
Assay: ELISA, coated antigen
Experimental: To detect the binding activity of the humanized antibodies to CD3 protein, CD3 protein was diluted with PBS to the final concentration of […], then added to a 96-well ELISA plate at 50 μL/well, and the plate was sealed with a plastic film, and incubated overnight at 4° C. […] The OD450 nm values were read by an ELISA microplate reader (Multimode Plate Reader, EnSight, purchased from Perkin Elmer).
On this scale, pEC50 is minus log10 of a concentration expressed in M (mol/L).

Some solved entries appear below for comparison.
40G5c-hIgG1 (antibody, V domains shown) VH: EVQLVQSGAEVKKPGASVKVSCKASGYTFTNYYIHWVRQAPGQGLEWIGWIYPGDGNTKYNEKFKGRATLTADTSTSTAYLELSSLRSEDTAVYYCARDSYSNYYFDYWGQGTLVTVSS VL: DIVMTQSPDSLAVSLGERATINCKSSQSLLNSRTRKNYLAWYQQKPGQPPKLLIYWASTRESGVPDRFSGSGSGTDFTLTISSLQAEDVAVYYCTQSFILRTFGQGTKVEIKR | 9.93
8-18.1-H1-L2 humanized antibody (antibody, human IgG1, kappa, V domains shown) VH: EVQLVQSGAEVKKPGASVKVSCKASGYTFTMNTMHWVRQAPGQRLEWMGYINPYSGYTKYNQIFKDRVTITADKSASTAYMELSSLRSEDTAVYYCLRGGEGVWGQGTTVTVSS VL: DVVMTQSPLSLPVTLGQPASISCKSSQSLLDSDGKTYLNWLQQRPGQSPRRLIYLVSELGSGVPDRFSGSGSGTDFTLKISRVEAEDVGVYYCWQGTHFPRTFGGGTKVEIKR | 10.44
7-35.6-H2-L3 humanized antibody (antibody, human IgG1, lambda, V domains shown) VH: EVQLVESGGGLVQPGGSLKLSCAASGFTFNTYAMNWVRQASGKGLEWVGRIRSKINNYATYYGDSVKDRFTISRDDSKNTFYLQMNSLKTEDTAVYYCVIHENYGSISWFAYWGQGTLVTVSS VL: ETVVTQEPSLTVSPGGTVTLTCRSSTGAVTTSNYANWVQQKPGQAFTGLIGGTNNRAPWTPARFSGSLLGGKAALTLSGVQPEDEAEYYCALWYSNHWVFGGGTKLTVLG | 10.40
5-7.13-H1a-L2 humanized antibody (antibody, human IgG1, kappa, V domains shown) VH: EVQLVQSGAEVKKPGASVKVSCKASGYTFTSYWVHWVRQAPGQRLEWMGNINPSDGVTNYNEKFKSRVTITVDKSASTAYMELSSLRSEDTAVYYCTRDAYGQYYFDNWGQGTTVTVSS VL: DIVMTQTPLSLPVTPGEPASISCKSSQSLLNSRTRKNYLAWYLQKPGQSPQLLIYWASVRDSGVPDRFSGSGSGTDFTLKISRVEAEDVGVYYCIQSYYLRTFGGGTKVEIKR | 10.69

So for 6-35.22-H1-L1 humanized antibody (antibody, human IgG1, kappa, V domains shown) VH: EVQLVESGGGVVQPGRSLRLSCAASGFTFTDYYMSWVRQAPGKGLEWVAMSRNKAKGHTIEYSSSVKGRFTISRDNSKNTLYLQMNSLRAEDTAVYYCARDTYESYDGYFDVWGQGTTVTVSS VL: DIVMTQSPDSLAVSLGERATINCKSSQSLFNSRSRKNYLAWYQQKPGQTPKLLIYWASIRESGVPDRFSGSGSGTDFTLTISSLQAEDVAVYYCKQSYYLYTFGQGTKLEIKR , the logged pEC50 turned out to be 10.47
